// values below are pKi; system is UniProt P19327
Give bare numbers, as −log10 of the molar value.

Solved cases (4 shown):
1) CN1CCc2cccc3c2[C@H]1Cc1ccc(-c2ccccc2)c(O)c1-3: 5.96
2) CCCN1CCc2cccc3c2[C@H]1Cc1ccc(C)c(OC)c1-3: 7.97
3) COc1c(C(C)=O)ccc2c1-c1cccc3c1[C@@H](C2)N(C)CC3: 6.82
4) COc1c(-c2ccco2)ccc2c1-c1cccc3c1[C@@H](C2)N(C)CC3: 6.00

Kindly consider the entry below.
Report pKi for `CCCN1CCc2cccc3c2[C@H]1Cc1ccc(C)c(O)c1-3` please.
7.91

---

Target: D(2) dopamine receptor (Homo sapiens)
Test: In vitro affinity at human cloned Dopamine receptor D2A by [3H]-raclopride displacement.
OBSERVATION TYPE: Ki (µM)
Answers are plain numbers, in µM.

Example results:
1. COc1c(C)ccc2c1-c1cccc3c1[C@@H](C2)N(C)CC3: 0.248
2. CCc1ccc2c(c1O)-c1cccc3c1[C@@H](C2)N(C)CC3: 2.05
3. COc1c(OS(=O)(=O)C(F)(F)F)ccc2c1-c1cccc3c1[C@@H](C2)N(C)CC3: 1.04

Now consider a different compound.
Any idea what Ki was measured for `CCc1ccc2c(c1OC)-c1cccc3c1[C@@H](C2)N(C)CC3` ?
0.411

---

Molecular target: D(2) dopamine receptor (Homo sapiens, UniProt P14416)
Sequence (P14416 whole entry): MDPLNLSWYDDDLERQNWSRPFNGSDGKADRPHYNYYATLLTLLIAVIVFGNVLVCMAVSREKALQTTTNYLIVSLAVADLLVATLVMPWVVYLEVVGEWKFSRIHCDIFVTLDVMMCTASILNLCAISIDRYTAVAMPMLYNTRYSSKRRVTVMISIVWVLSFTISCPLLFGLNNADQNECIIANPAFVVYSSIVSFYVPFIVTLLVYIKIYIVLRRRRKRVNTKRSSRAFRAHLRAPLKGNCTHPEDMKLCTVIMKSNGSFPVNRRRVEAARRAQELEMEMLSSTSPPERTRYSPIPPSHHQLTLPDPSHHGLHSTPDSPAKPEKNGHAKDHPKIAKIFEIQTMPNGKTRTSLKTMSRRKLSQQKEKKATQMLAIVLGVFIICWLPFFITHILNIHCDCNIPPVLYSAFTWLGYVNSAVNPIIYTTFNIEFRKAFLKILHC
Assay: In vitro affinity at human cloned Dopamine receptor D2A by [3H]raclopride displacement.
For each record, write down the corresponding pKi.
Give bare numbers, as −log10 of the molar value.

These recorded examples may help you get a feel for the data.
1. COc1c(C)ccc2c1-c1cccc3c1[C@@H](C2)NCC3: 5.33
2. COc1c(-c2ccco2)ccc2c1-c1cccc3c1[C@@H](C2)N(C)CC3: 6.24
3. COc1c(C(C)=O)ccc2c1-c1cccc3c1[C@@H](C2)N(C)CC3: 5.53

Can you look up the measured pKi of `C=Cc1ccc2c(c1OC)-c1cccc3c1[C@@H](C2)N(C)CC3` for me?
5.76

---

For each entry below, report its Ki value.
Target: D(1A) dopamine receptor (Rattus norvegicus, UniProt P18901)
Sequence (P18901 whole entry): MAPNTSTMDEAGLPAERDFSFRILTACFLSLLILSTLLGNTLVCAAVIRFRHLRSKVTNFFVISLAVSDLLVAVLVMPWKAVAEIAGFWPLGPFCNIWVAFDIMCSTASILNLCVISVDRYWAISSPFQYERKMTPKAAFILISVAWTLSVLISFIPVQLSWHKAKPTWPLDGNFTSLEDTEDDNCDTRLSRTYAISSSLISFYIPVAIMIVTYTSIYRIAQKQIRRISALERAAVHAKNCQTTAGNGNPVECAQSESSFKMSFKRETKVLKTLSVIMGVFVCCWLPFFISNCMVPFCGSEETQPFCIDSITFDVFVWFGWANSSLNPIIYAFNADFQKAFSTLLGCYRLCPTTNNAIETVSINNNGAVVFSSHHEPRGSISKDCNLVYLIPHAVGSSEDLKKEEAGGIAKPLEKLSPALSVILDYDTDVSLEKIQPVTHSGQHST
Test: In vitro affinity at Dopamine receptor D1 of rat striatum by [3H]SCH-23390 displacement.
Assay type: tissue-based
One number for each entry, in µM.

Worked examples follow.
1) CCc1ccc2c(c1O)-c1cccc3c1[C@@H](C2)N(C)CC3: 0.782
2) COc1c(C)ccc2c1-c1cccc3c1[C@@H](C2)N(C)CC3: 0.393
3) CCc1ccc2c(c1OC)-c1cccc3c1[C@@H](C2)N(C)CC3: 1.03

Observed Ki on D(1A) dopamine receptor (Rattus norvegicus, UniProt P18901) for `CN1CCc2cccc3c2[C@H]1Cc1ccc(-c2ccccc2)c(O)c1-3` , please.
9.4

---

Give measured pKi for each item. Keep answers brief.
Target: D(1A) dopamine receptor (Rattus norvegicus)
Assay: In vitro affinity at Dopamine receptor D1 of rat striatum by [3H]SCH-23390 displacement.
Type: tissue-based
Answers are plain numbers, as −log10 of the molar value.

1) Cc1ccc2c(c1O)-c1cccc3c1[C@@H](C2)NCC3: 4.62

Look up pKi for this molecule: `CC(=O)c1ccc2c(c1O)-c1cccc3c1[C@@H](C2)N(C)CC3`
5.34

---

Target: D(1A) dopamine receptor (Rattus norvegicus, UniProt P18901)
Test: In vitro affinity at Dopamine receptor D1 of rat striatum by [3H]SCH-23,390 displacement.
Format: tissue-based
Provide the reported Ki of each item.
Numbers only, in µM.

Some compounds with recorded Ki:
1) COc1c(-c2ccco2)ccc2c1-c1cccc3c1[C@@H](C2)N(C)CC3: 14
2) COc1c(C(C)=O)ccc2c1-c1cccc3c1[C@@H](C2)N(C)CC3: 4.82

Next compound, Ki to be filled in.
Consider the compound shown here: `C=Cc1ccc2c(c1OC)-c1cccc3c1[C@@H](C2)N(C)CC3` What is its recorded Ki?
1.44

---

Target: 5-hydroxytryptamine receptor 1A (Rattus norvegicus, UniProt P19327)
Sequence (P19327 whole entry): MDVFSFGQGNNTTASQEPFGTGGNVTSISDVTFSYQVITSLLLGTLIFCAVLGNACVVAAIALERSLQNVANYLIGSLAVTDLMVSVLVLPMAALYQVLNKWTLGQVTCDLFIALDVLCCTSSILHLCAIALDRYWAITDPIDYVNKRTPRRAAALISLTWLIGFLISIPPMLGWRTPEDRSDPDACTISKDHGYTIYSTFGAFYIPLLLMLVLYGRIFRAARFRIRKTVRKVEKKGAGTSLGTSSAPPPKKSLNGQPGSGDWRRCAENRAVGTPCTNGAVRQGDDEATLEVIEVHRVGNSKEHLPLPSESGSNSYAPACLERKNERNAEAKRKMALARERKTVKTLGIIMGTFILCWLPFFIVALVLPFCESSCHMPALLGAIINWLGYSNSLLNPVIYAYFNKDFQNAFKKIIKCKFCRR
Mark each entry satisfied if its Ki sits below 10 nM, and not satisfied for all others.

1. Cc1ccc2c(c1O)-c1cccc3c1[C@@H](C2)NCC3: satisfied

Threshold test, Ki < 10 nM: `Cc1ccc2c(c1O)-c1cccc3c1[C@@H](C2)N(C(C)C)CC3`
not satisfied

is_below(Ki, 10 nM) for `CCCN1CCc2cccc3c2[C@H]1Cc1ccc(OS(=O)(=O)C(F)(F)F)c(OC)c1-3` ?
not satisfied

Is Ki strictly under 10 nM for the entry `CCc1ccc2c(c1O)-c1cccc3c1[C@@H](C2)N(C)CC3` ?
satisfied

Is Ki of `COc1c(OS(=O)(=O)C(F)(F)F)ccc2c1-c1cccc3c1[C@@H](C2)N(C)CC3` strictly below 10 nM?
not satisfied

Check if Ki falls below 10 nM for `COc1c(C)ccc2c1-c1cccc3c1[C@@H](C2)N(C)CC3` .
satisfied

Please state whether Ki is below 10 nM for `COc1c(C)ccc2c1-c1cccc3c1[C@@H](C2)NCC3`
not satisfied

Please indicate whether the reported Ki of `C=Cc1ccc2c(c1OC)-c1cccc3c1[C@@H](C2)N(C)CC3` is strictly below 10 nM.
not satisfied

In plain terms, does `CCc1ccc2c(c1OC)-c1cccc3c1[C@@H](C2)N(C)CC3` come in under 10 nM for Ki?
not satisfied

Lab note: Ki threshold 10 nM. Does this compound come in strictly under it? `COc1c(C)ccc2c1-c1cccc3c1[C@@H](C2)N(C(C)C)CC3`
not satisfied

---

Molecular target: D(2) dopamine receptor (Homo sapiens)
Test: In vitro affinity at human cloned Dopamine receptor D2A by [3H]-raclopride displacement.
pKi: −log10 of the molar value.
Give pKi for every item shown.

Would you please look over these solved cases?
1. Cc1ccc2c(c1O)-c1cccc3c1[C@@H](C2)NCC3: < 5.00
2. Cc1ccc2c(c1O)-c1cccc3c1[C@@H](C2)N(Cc1ccccc1)CC3: < 6.00
3. CN1CCc2cccc3c2[C@H]1Cc1ccc(-c2ccccc2)c(O)c1-3: < 6.00

Let us move to another entry and its pKi.
What does the record list as pKi for `Cc1ccc2c(c1O)-c1cccc3c1[C@@H](C2)N(C(C)C)CC3` ?
< 6.00

---

Target: D(1A) dopamine receptor (Rattus norvegicus)
Assay: In vitro affinity at Dopamine receptor D1 of rat striatum by [3H]SCH-23390 displacement.
Assay type: tissue-based
OBSERVATION TYPE: Ki

Example cases with answers are listed next.
1. CCCN1CCc2cccc3c2[C@H]1Cc1ccc(C)c(OC)c1-3: > 2 µM
2. Cc1ccc2c(c1O)-c1cccc3c1[C@@H](C2)N(C(C)C)CC3: > 10 µM
3. CCCN1CCc2cccc3c2[C@H]1Cc1ccc(C)c(O)c1-3: > 2 µM
4. Cc1ccc2c(c1O)-c1cccc3c1[C@@H](C2)N(Cc1ccccc1)CC3: > 5 µM
5. COc1c(OS(=O)(=O)C(F)(F)F)ccc2c1-c1cccc3c1[C@@H](C2)N(C)CC3: > 2 µM

Note: attention shifts to another entry.
What Ki value was documented for this compound, `CCCN1CCc2cccc3c2[C@H]1Cc1ccc(OS(=O)(=O)C(F)(F)F)c(OC)c1-3` ?
> 2 µM
